// reported Potency per item
assay: qHTS of pediatric cancer cell lines to identify multiple opportunities for drug repurposing: Confirmatory screen for SK-N-MC cells (AID 1347111); conditions: SK-N-MC cell viability; series mostly up to 45.9 µM;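 also: potency is read from the fitted curve at half-maximal effect; cells exposed to compound for 48 h before the readout; nearly all actives have a fitted effect of over 70% in size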
Records with an inconclusive call do not appear. Active and inactive are the calls of the source. Calls follow the shape of the dose curve; as a rule, active = well fitted cell-killing curve with a large enough effect; inconclusive = small, poorly fitted or top-dose-only effect; inactive = no such curve, though single readings can be large or run the other way.

[
  {
    "COMPOUND": "CCc1ccc(OCc2ccccc2C(=O)Nc2ccc3nc(C)cc(N)c3c2)cc1",
    "Potency": "0.827 µM (active)"
  },
  {
    "COMPOUND": "CO[C@H]1C[C@@H]2CC[C@@H](C)[C@@](O)(O2)C(=O)C(=O)N2CCCC[C@@H]2C(=O)O[C@H]([C@H](C)C[C@@H]2CC[C@H](OP(C)(C)=O)[C@H](OC)C2)CC(=O)[C@H](C)C=C(C)[C@@H](O)[C@@H](OC)C(=O)[C@H](C)C[C@H](C)C=CC=CC=C1C",
    "Potency": "11.7 µM (active)"
  },
  {
    "COMPOUND": "CCOc1ccc(Nc2nc(-c3c(C)nc4ccccn34)cs2)cc1",
    "Potency": "0.0928 µM (active)"
  },
  {
    "COMPOUND": "Cc1cc(OCCCc2c(C(=O)O)n(Cc3cccnc3)c3c(-c4c(COc5ccc(N6CCN([S+](C)(=O)[O-])CC6)cc5)nn(C)c4C)cccc23)cc(C)c1Cl",
    "Potency": "20.8 µM (active)"
  },
  {
    "COMPOUND": "N[C@@]1(C(=O)O)CS(=O)(=O)[C@H]2[C@H](C(=O)O)[C@H]21",
    "Potency": "0.0465 µM (active)"
  },
  {
    "COMPOUND": "Cc1nnc(C(C)C)n1C1C[C@H]2CC[C@@H](C1)N2CC[C@H](NC(=O)C1CCC(F)(F)CC1)c1ccccc1 (some centres not stated)",
    "Potency": "7.37 µM (active)"
  },
  {
    "COMPOUND": "C=C1C(=O)[C@@]23C(CC[C@@H]1[C@H]2O)[C@@]12CO[C@]3(O)[C@@H](O)[C@@H]1C(C)(C)CC[C@@H]2O (some centres not stated)",
    "Potency": "4.65 µM (active)"
  }
]

---

Biological target: Thioredoxin reductase 1, cytoplasmic (Rattus norvegicus) (UniProt O89049)
Sequence (O89049 whole entry, looked up): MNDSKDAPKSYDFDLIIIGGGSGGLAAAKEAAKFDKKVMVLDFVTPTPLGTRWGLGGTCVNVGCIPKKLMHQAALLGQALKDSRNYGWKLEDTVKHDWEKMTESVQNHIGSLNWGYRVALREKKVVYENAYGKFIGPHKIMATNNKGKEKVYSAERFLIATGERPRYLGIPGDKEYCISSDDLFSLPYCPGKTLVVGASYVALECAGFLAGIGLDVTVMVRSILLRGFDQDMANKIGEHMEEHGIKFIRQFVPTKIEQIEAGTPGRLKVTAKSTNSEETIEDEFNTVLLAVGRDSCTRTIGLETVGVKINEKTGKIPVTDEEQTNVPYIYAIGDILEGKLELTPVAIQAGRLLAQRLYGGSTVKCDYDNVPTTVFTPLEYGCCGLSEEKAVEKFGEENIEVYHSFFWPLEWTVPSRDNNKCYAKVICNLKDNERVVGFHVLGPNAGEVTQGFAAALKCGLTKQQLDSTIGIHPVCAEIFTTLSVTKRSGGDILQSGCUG
Assay: qHTS Assay for Inhibitors of Mammalian Selenoprotein Thioredoxin Reductase 1 (TrxR1) (AID 488773); also: nearly all actives have a fitted effect of over 40% in size
Settings: purified TrxR1 enzyme activity; inhibition; series mostly up to 57.1 µM
Description: The selenoprotein thioredoxin reductase (TrxR; EC 1.8.1.9) is a FAD containing homodimeric pyridine nucleotide-disulfide oxidoreductase with many cellular roles. Together with NADPH and its prime substrate thioredoxin (Trx), the enzyme forms the core of the Trx system. […] This BioAssay is a validation of an NADPH fluorescence-based, dual-purpose qHTS rTrxR1 assay designed to find potential inhibitors and substrates of rTrxR1. […]
Inconclusive results are not listed. Calls of active or inactive are those of the source. Calls come from the whole dose curve; as a rule, active = well fitted inhibition curve with a large enough effect; inconclusive = small, poorly fitted or top-dose-only effect; inactive = no such curve, though single readings can be large or run the other way.
Possible outcomes: 1 (yes) = active, 0 (no) = inactive

[
  {
    "COMPOUND": "O=c1cc(-c2ccc(O)cc2)oc2cc(O)cc(O)c12",
    "QUALITATIVE_LABEL": "0 (no)"
  },
  {
    "COMPOUND": "CCCCC1C(=O)N(c2ccccc2)N(c2ccccc2)C1=O",
    "QUALITATIVE_LABEL": "0 (no)"
  },
  {
    "COMPOUND": "Clc1ccc(Cn2c(CN3CCCC3)nc3ccccc32)cc1",
    "QUALITATIVE_LABEL": "0 (no)"
  },
  {
    "COMPOUND": "O=c1c(-c2ccc(O)cc2)coc2cc(O)ccc12",
    "QUALITATIVE_LABEL": "1 (yes)"
  },
  {
    "COMPOUND": "C[N+](C)(C)CCCCCC[N+](C)(C)C",
    "QUALITATIVE_LABEL": "0 (no)"
  },
  {
    "COMPOUND": "CCN(CC)CCOC(=O)c1ccc(N)cc1",
    "QUALITATIVE_LABEL": "0 (no)"
  },
  {
    "COMPOUND": "Clc1ccc(C(c2ccc(Cl)cc2)n2cc[n+](CC(OCc3ccc(Cl)cc3Cl)c3ccc(Cl)cc3Cl)c2)cc1 (configuration not stated)",
    "QUALITATIVE_LABEL": "0 (no)"
  },
  {
    "COMPOUND": "CCN1CCC[C@H]1CNC(=O)c1cc(S(N)(=O)=O)ccc1OC",
    "QUALITATIVE_LABEL": "0 (no)"
  },
  {
    "COMPOUND": "O=C1NC(=O)C(c2ccccc2)(c2ccccc2)N1",
    "QUALITATIVE_LABEL": "0 (no)"
  },
  {
    "COMPOUND": "NC(N)=Nc1nc(CSCC/C(N)=N/S(N)(=O)=O)cs1",
    "QUALITATIVE_LABEL": "0 (no)"
  },
  {
    "COMPOUND": "COc1cccc(-c2cc(=O)c3ccccc3o2)c1N",
    "QUALITATIVE_LABEL": "0 (no)"
  },
  {
    "COMPOUND": "CCCCCN(C)CCC(O)(P(=O)(O)O)P(=O)(O)O",
    "QUALITATIVE_LABEL": "0 (no)"
  }
]
